# System: Cryptococcus neoformans
# testName: Antifungal activity against Cryptococcus neoformans Berkout KCCM 50564 after 1 day by two fold broth dilution method
# Assay type: functional
# studyConditions: Berkout KCCM 50564, 24 h
Would you mind telling me the reported MIC of each entry?

Sample records with MIC:
{"columns": ["smilesRecord", "propertyLabel", "result"],
 "data": [
  ["CCOC(=O)c1c2c(n3ccc(OC)cc13)C(=O)C(C)=C(C)C2=O", "MIC", "50 µg/mL"],
  ["COC(=O)c1c2c(n3ccc(OC)cc13)C(=O)C(C)=C(C)C2=O", "MIC", "1.6 µg/mL"],
  ["Nc1nc(=O)[nH]cc1F", "MIC", "6.3 µg/mL"],
  ["CC1=C(C)C(=O)c2c(cc3cc(C)ccn23)C1=O", "MIC", "6.3 µg/mL"]
]}

# per-item lookup of MIC; items listed below
1. CCOC(=O)c1c2c(n3ccc(C#N)cc13)C(=O)C(C)=C(C)C2=O
2. COc1ccn2c3c(c(C(C)=O)c2c1)C(=O)C(C)=C(C)C3=O
3. COC(=O)c1c2c(n3ccc(C)cc13)C(=O)C(C)=C(C)C2=O
4. CCc1ccn2c3c(c(C)c2c1)C(=O)c1ccccc1C3=O
5. CCc1ccn2c3c(c(C(C)=O)c2c1)C(=O)C(C)=C(C)C3=O
6. COc1ccn2c3c(cc2c1)C(=O)C(C)=C(C)C3=O
7. CCOC(=O)c1c2c(n3cc(C)ccc13)C(=O)c1ccccc1C2=O

1: 6.3 µg/mL; 2: 6.3 µg/mL; 3: 25 µg/mL; 4: 6.3 µg/mL; 5: 6.3 µg/mL; 6: 1.6 µg/mL; 7: 12.5 µg/mL

Below is a list of compounds. For each, state its recorded MIC.
1. COC(=O)c1c2c(n3ccc(OC)cc13)C(=O)c1ccccc1C2=O
2. CCc1ccn2c3c(c(C(=O)OC)c2c1)C(=O)c1ccccc1C3=O
3. Cc1ccn2c3c(c(C)c2c1)C(=O)c1ccccc1C3=O
4. CCOC(=O)c1c2c(n3ccccc13)C(=O)c1ccccc1C2=O
5. COc1ccc2c(C(C)=O)c3c(n2c1)C(=O)c1ccccc1C3=O
6. CCOC(=O)c1c2c(n3cc(C)ccc13)C(=O)C(C)=C(C)C2=O
7. CCOC(=O)c1c2c(n3ccccc13)C(=O)C(C)=C(C)C2=O
8. Cc1ccn2c3c(cc2c1)C(=O)c1ccccc1C3=O

1: 25 µg/mL; 2: 12.5 µg/mL; 3: 12.5 µg/mL; 4: 25 µg/mL; 5: 12.5 µg/mL; 6: 3.2 µg/mL; 7: 6.3 µg/mL; 8: 6.3 µg/mL

Working through the 6 compounds below one at a time, give MIC for each.
1. COc1ccn2c3c(cc2c1)C(=O)c1ccccc1C3=O
2. COc1cc[n+](C2=C(Cl)C(=O)c3ccccc3C2=O)cc1.[Cl-]
3. CC1=C(C)C(=O)C([n+]2ccc(C)cc2)=C(Cl)C1=O.[Cl-]
4. COC(=O)c1c2c(n3cc(C)ccc13)C(=O)c1ccccc1C2=O
5. OC(Cn1cncn1)(Cn1cncn1)c1ccc(F)cc1F
6. COc1cc[n+](C2=C(Cl)C(=O)C(C)=C(C)C2=O)cc1.[Cl-]

> 100 µg/mL
50 µg/mL
3.2 µg/mL
25 µg/mL
6.3 µg/mL
6.3 µg/mL
